cell viability by entry:
Tested on: ML-2
Assay: cell viability (% survival relative to DMSO control, bortezomib = 0%); higher = less cytotoxic
Settings: 10 nM; 72 h
The reply should contain only the number, in %.

Before answering, review these 4 worked examples.
In [3]: df
Out[3]:
                                   compound          metric  measure_unit  assay_result
0  CN(C)CCNC(=O)c1cccn2c(=O)c3cc4ccccc4cc3nc12  cell viability             %           106
1                  Clc1cc(Cl)c(OCC#CI)cc1Cl  cell viability             %           108
2  c1ccc2nc(-c3nnc4sc(-c5cnccn5)nn34)ccc2c1  cell viability             %           122
3  COc1ccc2c(c1)c(CC(=O)O)c(C)n2C(=O)c1ccc(Cl)cc1  cell viability             %          98.3

IN: // query cell viability value for entry CC(=O)N1CCN(c2ccc(OC[C@@H]3CO[C@@](Cn4ccnc4)(c4ccc(Cl)cc4Cl)O3)cc2)CC1 (racemic)
OUT: 113

IN: Then this compound: `O=C(CCl)N(CCCNC(=O)C(F)(F)F)c1ccc([N+](=O)[O-])cc1`
OUT: 102

IN: Then this compound: `CC(C)(CCCCCCCCCCC(C)(C)CC(=O)O)CC(=O)O`
OUT: 99.4

IN: Then this compound: `CN(C)C(=N)NC(=N)N`
OUT: 101

###

Test system: MV4-11
Settings: 72 h
metric: IC50 (cell viability)

>>> df
                                   compound  assay_result
0      C#CCN[C@@H]1CCc2ccccc21 [Rasagiline]       > 10 µM
1  COc1cc(C2Oc3cc(C4Oc5cc(O)cc(O)c5C(=O)C4O)ccc3OC2CO)ccc1O (stereo not drawn) [Silibinin]       > 10 µM
2  CC(C)(O)CNc1nc(Nc2ccnc(C(F)(F)F)c2)nc(-c2cccc(C(F)(F)F)n2)n1 [Enasidenib]       > 10 µM
3          CCCCCCCNC=O [N-Heptyl-Formamide]       > 10 µM
4  CCCCC/C=C\C/C=C\C/C=C\C/C=C\CCCC(=O)C(F)(F)F [Arachidonyl trifluoromethyl ketone]       > 10 µM

IN: // query IC50 (cell viability) value for entry O=[As]O[As]=O (stereo not drawn) [Arsenic trioxide]
OUT: 4.27 µM

IN: Then this compound: O=c1oc2c(cc1O)oc(=O)c1cc(O)c(O)c(O)c12 [Galloflavin]
OUT: > 10 µM

IN: Then this compound: Cl.OC[C@H]1NC[C@H](O)[C@@H](O)[C@H]1O [Migalastat]
OUT: > 10 µM

IN: Then this compound: CC(C)c1ccc2c(c1)c(SC(C)(C)C)c(CC(C)(C)C(=O)O)n2Cc1ccc(Cl)cc1 [MK-886]
OUT: > 10 µM

IN: Then this compound: OCCN(CCO)c1nc(N2CCCCC2)c2nc(N(CCO)CCO)nc(N3CCCCC3)c2n1 [Dipyridamole]
OUT: 8.82 µM

IN: Then this compound: OC[C@H]1OC(O)C[C@@H](O)[C@@H]1O (stereo partly drawn) [2-deoxyglucose]
OUT: > 10 µM

IN: Then this compound: Cc1[nH]n(-c2ccccc2)c(=O)c1C1(C(F)(F)F)C(=O)N(c2ccccc2)C2=C1C(=O)CC(C)(C)C2 (stereo not drawn)
OUT: > 10 µM

IN: Then this compound: Cl.NC1=CCCN1Cc1nc(O)nc(O)c1Cl [Tipiracil]
OUT: > 10 µM

###

Test system: HEL
Assay: cell viability (% survival relative to DMSO control, bortezomib = 0%); higher = less cytotoxic
Details: 10000 nM; 72 h
Where a name gives a salt, the structure may show the parent alone.
metric: cell viability (%)
The reply should contain only the number, in %.

In [3]: df
Out[3]:
                                   compound  target_or_test_system  measure_unit  assay_result
0      N=C(N)c1ccc(N=NNc2ccc(C(=N)N)cc2)cc1                    HEL             %           111
1  CC(C)(Cc1ccccc1)NCC(O)c1ccc(O)c(NS(C)(=O)=O)c1 (stereo not drawn) [Zinterol hydrochloride]                    HEL             %          93.5

IN: // query cell viability value for entry `Oc1ncc(F)c(O)n1`
OUT: 31.8

###

Test system: KCL-22
Assay: cell viability (% survival relative to DMSO control, bortezomib = 0%); higher = less cytotoxic
Details: 100 nM; 72 h
cell viability by entry:

In [3]: df
Out[3]:
                          molecule  target_or_test_system  assay_result
0  c1ccc2c(c1)SCc1c-2[nH]c2ccccc12                 KCL-22          100%

IN: // query cell viability value for entry O=C(CCl)N(CCCNC(=O)C(F)(F)F)c1ccc([N+](=O)[O-])cc1 [ML175]
OUT: 85%

IN: Then this molecule: O=C(/C=C/c1cccnc1)NCCCCC1CCN(C(=O)c2ccccc2)CC1 [Daporinad]
OUT: 1.38%

###

Test system: myeloid leukemia patient primary cells Pat.14
Assay: area under dose-response curve (viability, 1 nM-10 uM) (fraction (0-1)); higher = more sensitive
Details: 72 h
Where a name gives a salt, the structure may show the parent alone.
metric: area under dose-response curve

Before answering, review these 2 worked examples.
>>> df
                                   compound  assay_result
0  CC(C)(Cc1ccccc1)NCC(O)c1ccc(O)c(NS(C)(=O)=O)c1 (stereo not drawn) [Zinterol hydrochloride]      < 0.0301
1  O=c1[nH]c(=O)n([C@H]2C[C@H](O)[C@@H](CO)O2)cc1I [Idoxuridine]      < 0.0301

// next item, area under dose-response curve requested
IN: // query area under dose-response curve value for entry C=C1NC(=O)c2cc(CN(C)c3ccc(C(=O)N[C@@H](CCC(=O)O)C(=O)O)s3)ccc2N1 [Raltitrexed]
OUT: < 0.0301

###

Tested on: BV-173
Settings: 72 h
metric: IC50 (cell viability)

Before answering, review these 2 worked examples.
>>> df
                                   molecule  assay_result
0     CCCCCCCCCCCCCCOc1ccc(C(=O)O)o1 [TOFA]       > 10 µM
1  CC(=O)N1CCN(c2ccc(OC[C@@H]3CO[C@@](Cn4ccnc4)(c4ccc(Cl)cc4Cl)O3)cc2)CC1 (racemic) [Ketoconazole]       > 10 µM

// next item, IC50 (cell viability) requested
IN: // query IC50 (cell viability) value for entry Cc1[nH]n(-c2ccccc2)c(=O)c1C1(C(F)(F)F)C(=O)N(c2ccccc2)C2=C1C(=O)CC(C)(C)C2 (stereo not drawn)
OUT: > 10 µM

###

Tested on: KU-812
Test: cell viability (% survival relative to DMSO control, bortezomib = 0%); higher = less cytotoxic
Settings: 10 nM; 72 h
metric: cell viability
Write down the value, and be sure its unit follows.

Before answering, review these 2 worked examples.
In [3]: df
Out[3]:
                                   compound  assay_result
0  CC(C)(F)C[C@H](N[C@@H](c1ccc(-c2ccc(S(C)(=O)=O)cc2)cc1)C(F)(F)F)C(=O)NC1(C#N)CC1         87.9%
1  Cc1[nH]n(-c2ccccc2)c(=O)c1C1(C(F)(F)F)C(=O)N(c2ccccc2)C2=C1C(=O)CC(C)(C)C2 (stereo not drawn)         94.3%

IN: // query cell viability value for entry `O=c1[nH]c(=O)n([C@H]2C[C@H](O)[C@@H](CO)O2)cc1I`
OUT: 95.9%

###

Tested on: MV4-11
Test: cell viability (% survival relative to DMSO control, bortezomib = 0%); higher = less cytotoxic
Conditions: 10 nM; 72 h
cell viability by entry:

                                   compound          metric  assay_result
0  CCCCCCCCCCCCC/C=C/[C@@H](O)[C@H](CO)N(C)C [N,N-Dimethylsphingosine]  cell viability          102%

IN: Form field - read-out: cell viability; system: MV4-11; submitted item: Cn1cc(C[C@@H](N)C(=O)O)c2ccccc21 [Indoximod]
OUT: 88.2%

IN: Then this compound: CC(C)(CCCCCCCCCCC(C)(C)CC(=O)O)CC(=O)O [MEDICA 16]
OUT: 105%

IN: Then this compound: CC(C)(O)CNc1nc(Nc2ccnc(C(F)(F)F)c2)nc(-c2cccc(C(F)(F)F)n2)n1 [Enasidenib]
OUT: 88.9%

IN: Then this compound: CC(C)c1ccc2c(c1)c(SC(C)(C)C)c(CC(C)(C)C(=O)O)n2Cc1ccc(Cl)cc1 [MK-886]
OUT: 109%

IN: Then this compound: `O=C(c1c2ccccc2cc2ccccc12)N1CCC(N2CCC[C@@H](C(=O)N3CCOCC3)C2)CC1`
OUT: 110%

IN: Then this compound: N=C(N)c1ccc(N=NNc2ccc(C(=N)N)cc2)cc1 [Diminazene]
OUT: 100%

IN: Then this compound: COc1ccc2c(c1)c(CC(=O)O)c(C)n2C(=O)c1ccc(Cl)cc1 [Indomethacine]
OUT: 82.1%

Ref: the supplement of paper PMC8671470
